Test system: corn (Zea mays)
Experiment: Test C pre-/postemergence greenhouse test
Format: in vivo
Conditions: Preemergence, 31 g ai/ha; scale 0 to 100
READOUT_LABEL: Plant response rating, Corn
Would you mind answering with just the numeric figure?

So for Cc1ccc2ccc(C)c(-c3c(O)c(Cl)nn(C)c3=O)c2c1 , the logged Plant response rating, Corn turned out to be 0

So for Cc1ccc2ccc(Cl)cc2c1-c1c(O)c(Cl)nn(C)c1=O , the logged Plant response rating, Corn turned out to be 10

So for Cc1cc(Cl)c2ccccc2c1-c1c(O)c(Cl)nn(C)c1=O , the logged Plant response rating, Corn turned out to be 0

So for Cc1ccc2ccc(F)cc2c1-c1c(O)c(Cl)nn(C)c1=O , the logged Plant response rating, Corn turned out to be 0
